- ASSAY_OVERVIEW: Multi-lamellar liposome vesicle (MLV) partitioning
- Format: physicochemical
- SETTINGS: (C0−CS)/C0, 1 μg/mL, 4 h, 37°C, PBS pH 7.4
QUANTITY_MEASURED: MLV Partitioning

{"SMILES_STR": "COc1cc2c(c(OC)c1OC)-c1ccc(OC)c(=O)cc1[C@@H](NC(C)=O)CC2", "MLV Partitioning": 0.86}

[P] COC(=O)c1ccccc1-c1c2ccc(=N)cc-2oc2cc(N)ccc12.Cl
[Q] CC[C@H]1OC(=O)[C@H](C)[C@@H](O[C@H]2C[C@@](C)(OC)[C@@H](O)[C@H](C)O2)[C@H](C)[C@@H](O[C@@H]2O[C@H](C)C[C@H](N(C)C)[C@H]2O)[C@](C)(O)C[C@@H](C)C(=O)[C@H](C)[C@@H](O)[C@]1(C)O
input: Pick one, P or Q : lowest reported MLV Partitioning. Please reply using the label of the selected record.
output: Q
(Q: 0.46, P: 0.82)

###

- ASSAY_OVERVIEW: Immobilised artificial membrane (IAM) chromatography
- Format: physicochemical
- SETTINGS: extrapolated to 100% water; mean of four experiments
- Description: IAM chromatography provided an experimental measure of substrate membrane affinity and phospholipid interaction. The IAM column (Regis Technologies Inc., Hichrom, Reading, UK; IAM.PC.DD2 10 cm x 4.6 mm ID column) was run under isocratic eluting conditions with the retention of all compounds determined under three mobile phase conditions: 10%, 20% and 30% acetonitrile in water, and from which the theoretical retention time in 100% water was calculated by linear regression. […]
QUANTITY_MEASURED: LogK^IAM

{"COMPOUND": "CCN(CC)CCCC(C)Nc1ccnc2cc(Cl)ccc12 (centres unmarked)", "LogK^IAM": 1.43}
{"COMPOUND": "COc1cc2c(c(OC)c1OC)-c1ccc(OC)c(=O)cc1[C@@H](NC(C)=O)CC2", "LogK^IAM": 1.30}
{"COMPOUND": "C[C@H]1O[C@@H](O[C@H]2[C@@H](O)C[C@H](O[C@H]3[C@@H](O)C[C@H](O[C@H]4CC[C@@]5(C)[C@H](CC[C@@H]6[C@@H]5C[C@@H](O)[C@]5(C)[C@@H](C7=CC(=O)OC7)CC[C@]65O)C4)O[C@@H]3C)O[C@@H]2C)C[C@H](O)[C@@H]1O", "LogK^IAM": 0.92}

[A] COC(=O)c1ccccc1-c1c2ccc(=N)cc-2oc2cc(N)ccc12.Cl
[B] CC[C@H]1OC(=O)[C@H](C)[C@@H](O[C@H]2C[C@@](C)(OC)[C@@H](O)[C@H](C)O2)[C@H](C)[C@@H](O[C@@H]2O[C@H](C)C[C@H](N(C)C)[C@H]2O)[C@](C)(O)C[C@@H](C)C(=O)[C@H](C)[C@@H](O)[C@]1(C)O
input: Form: Entry with minimum LogK^IAM (choose one): A / B Which one? Tell me its label.
output: B

###

- System: P-glycoprotein (Mdr1a/Mdr1b) in isolated perfused mouse lung
- ASSAY_OVERVIEW: Isolated perfused mouse lung (IPML) airway-to-perfusate absorption, Mdr1a/1b (+/+) vs (−/−)
- SETTINGS: male, mouse, 50 μM
QUANTITY_MEASURED: Ratio AUCs (-/-) : (+/+)

{"COMPOUND": "COc1ccc(C[C@H](N)C(=O)N[C@H]2[C@@H](O)[C@H](n3cnc4c(N(C)C)ncnc43)O[C@@H]2CO)cc1", "EXPERIMENTAL_VALUE": 1.01}
{"COMPOUND": "CCc1cc2c(cc1CC)CC(NC[C@H](O)c1ccc(O)c3[nH]c(=O)ccc13)C2", "EXPERIMENTAL_VALUE": 1.37}
{"COMPOUND": "OCc1cc(C(O)CNCCCCCCOCCCCc2ccccc2)ccc1O (stereo not shown)", "EXPERIMENTAL_VALUE": 1.37}
{"COMPOUND": "CN1CCC[C@@H]1Cc1c[nH]c2ccc(CCS(=O)(=O)c3ccccc3)cc12", "EXPERIMENTAL_VALUE": 1.39}
